Test: Pharmacokinetic study after single IV and PO dose
Format: in vivo
Settings: male, ICR, mouse, plasma, iv, 5 mg/kg, male ICR mice, single IV dose 5 mg/kg, mean ± SD (n = 4)
recordedEndpoint: clearance

[
  {
    "compound": "CN(C)CCOc1nc2ccccc2c2oc(-c3ccc(C(F)(F)F)cc3)nc12 [KB-1518]",
    "measuredResult": "~25 mL/min/kg"
  }
]

###

Assay: In vitro metabolic stability in pooled human liver S9 fraction
Type: in vitro ADME
Settings: pH 7.4, HLS9 1 mg/mL, 3 µM compound, with cofactors, one-phase decay fit, read-out: in vitro t½ (estimated)
Quick reference: half-life at 3 µM of the listed items.
recordedEndpoint: half-life at 3 µM

[
  {
    "recordSmiles": "CN(C)CCOc1nc2ccccc2c2oc(-c3ccc(C(F)(F)F)cc3)nc12",
    "recordedEndpoint": "half-life at 3 µM",
    "measuredResult": "1.88 h"
  },
  {
    "recordSmiles": "CN(C)CCn1c(=O)c2nc(-c3ccc(C(F)(F)F)cc3)oc2c2ccccc21",
    "recordedEndpoint": "half-life at 3 µM",
    "measuredResult": "3.09 h"
  }
]

###

In this section, each of the molecules is paired with its reported half-life at 3 µM.
Test: In vitro metabolic stability in pooled mouse liver S9 fraction
Format: in vitro ADME
Conditions: male, ICR, pH 7.4, MLS9 1 mg/mL, 3 µM compound, with cofactors, one-phase decay fit, read-out: in vitro t½ (estimated)

[
  {
    "recordSmiles": "CN(C)CCOc1nc2ccccc2c2oc(-c3ccc(C(F)(F)F)cc3)nc12",
    "half-life at 3 µM, h": 1.24
  },
  {
    "recordSmiles": "CN(C)CCn1c(=O)c2nc(-c3ccc(C(F)(F)F)cc3)oc2c2ccccc21",
    "half-life at 3 µM, h": 3.06
  }
]

###

Experiment: Pharmacokinetic study after single IV and PO dose
Format: in vivo
Details: mouse; male ICR mice, single IV dose 5 mg/kg, plasma, noncompartmental analysis, mean ± SD (n = 4)
recordedEndpoint: half-life (h)

[
  {
    "recordSmiles": "CN(C)CCOc1nc2ccccc2c2oc(-c3ccc(C(F)(F)F)cc3)nc12",
    "recordedEndpoint": "half-life",
    "unitAbbreviation": "h",
    "measuredResult": 2.6
  }
]

###

Experiment: In vitro metabolic stability in pooled mouse liver S9 fraction
Assay type: in vitro ADME
Conditions: male, ICR, pH 7.4, MLS9, CLint,u = k/(fu,S9 × [S9]), read-out: CLint,u (unbound intrinsic clearance)
microsomal CLint at 3 µM values, listed per item

[
  {
    "recordSmiles": "CN(C)CCn1c(=O)c2nc(-c3ccc(C(F)(F)F)cc3)oc2c2ccccc21",
    "microsomal CLint at 3 µM, µL/min/mg": 25
  },
  {
    "recordSmiles": "CN(C)CCOc1nc2ccccc2c2oc(-c3ccc(C(F)(F)F)cc3)nc12",
    "microsomal CLint at 3 µM, µL/min/mg": 216
  }
]

###

Assay: Binding in mouse liver S9 fraction by equilibrium dialysis (RED)
Type: in vitro ADME
Conditions: ICR, mouse, liver S9 fraction, pH 7.4, mouse liver S9, 1 mg/mL protein, equilibrium dialysis 37 °C 4 h, mean ± SD (n = 3); read-out: fu (%) in liver S9 fractions
// fraction unbound at 4 h, 3 µM lookup, one value per entry
recordedEndpoint: fraction unbound at 4 h, 3 µM

[
  {
    "compound": "CN(C)CCn1c(=O)c2nc(-c3ccc(C(F)(F)F)cc3)oc2c2ccccc21",
    "resultQualifier": "<",
    "measuredResult": 0.2
  },
  {
    "compound": "Cc1cc(=O)n(-c2ccccc2)n1C [Antipyrine, antipyrine, reference compound]",
    "resultQualifier": "=",
    "measuredResult": 0.937
  },
  {
    "compound": "CCC(C)n1ncn(-c2ccc(N3CCN(c4ccc(OCC5COC(Cn6cncn6)(c6ccc(Cl)cc6Cl)O5)cc4)CC3)cc2)c1=O (stereo not drawn) [Itraconazole, itraconazole, reference compound]",
    "resultQualifier": "=",
    "measuredResult": 0.019
  }
]

###

Test: Pharmacokinetic study after single IV and PO dose
Format: in vivo
Details: mouse, plasma; male ICR mice, single IV dose 5 mg/kg, mean ± SD (n = 4)

[
  {
    "recordSmiles": "CN(C)CCOc1nc2ccccc2c2oc(-c3ccc(C(F)(F)F)cc3)nc12",
    "AUC(0-inf)": "3460 ng·h/mL"
  }
]

###

The entries below come with measured fraction unbound at 4 h, 10 µM values attached.
Experiment: Plasma protein binding by equilibrium dialysis (RED), mouse plasma
Type: in vitro ADME
Details: male, ICR, equilibrium dialysis 37 °C 4 h, mean ± SD (n = 3), read-out: fu (%) plasma protein binding

[
  {
    "compound": "CC(C)NCC(O)COc1cccc2ccccc12 (stereo not drawn)",
    "resultQualifier": "=",
    "fraction unbound at 4 h, 10 µM": 0.247
  },
  {
    "compound": "CN(C)CCn1c(=O)c2nc(-c3ccc(C(F)(F)F)cc3)oc2c2ccccc21",
    "resultQualifier": "<",
    "fraction unbound at 4 h, 10 µM": 0.02
  },
  {
    "compound": "CNC(=C[N+](=O)[O-])NCCSCc1ccc(CN(C)C)o1",
    "resultQualifier": "=",
    "fraction unbound at 4 h, 10 µM": 0.888
  }
]

###

Assay: Pharmacokinetic study after single IV and PO dose
Type: in vivo
Conditions: male, ICR, mouse, plasma, iv, 5 mg/kg, male ICR mice, single IV dose 5 mg/kg, mean ± SD (n = 4); read-out: Vss
recordedEndpoint: Vd

[
  {
    "compound": "CN(C)CCOc1nc2ccccc2c2oc(-c3ccc(C(F)(F)F)cc3)nc12 [KB-1518]",
    "measuredResult": "~4.6 L/kg"
  }
]
